Tested on: human whole blood (leukotriene and prostaglandin levels)
Experiment: Eicosanoid production from human whole blood
Type: cell-based
Details: human whole blood stimulated with calcium ionophore A23187 and arachidonic acid; ELISA
Method: Human whole blood is collected in 10 ml heparin tubes (Vacutainer, Becton Dickenson). Collected blood is pooled and 80 μL is dispensed into each well of 384 well polypropylene plates. A PlateMate is used to add 2 μL of compound solution in DMSO to the 80 μL of blood in the polypropylene plates. The plate, with blood and compound added, is incubated at room temperature for 10 minutes. […]
pIC50: −log10 of the molar value.
pIC50 by entry:
metric.name: pIC50

[
  {
    "compound": "CNC(=O)C1(c2cc(F)cc(Sc3ccc(-c4ccnn4C)cc3)c2)CCOCC1 [Example 18]",
    "metric.name": "pIC50",
    "value": 6.22
  },
  {
    "compound": "CNC(=O)C1(c2cccc(Sc3ccc(C(=O)c4ccnn4C)c(Cl)c3)c2)CCOCC1 [Example 65]",
    "metric.name": "pIC50",
    "value": 5.97
  },
  {
    "compound": "Cn1nccc1Cc1ccc(Sc2cccc(C3(C(N)=O)CCOCC3)c2)cc1F [Example 33]",
    "metric.name": "pIC50",
    "value": 6.31
  },
  {
    "compound": "C[C@H]1C[C@@](C#N)(c2cccc(Sc3cnc(Oc4ccnn4C)c(Cl)c3)c2F)CCO1 [52(4)]",
    "metric.name": "pIC50",
    "value": 6.93
  },
  {
    "compound": "CNC(=O)C1(c2cccc(Sc3ccc(-c4ccnn4C)cc3Cl)c2)CCOCC1 [Example 16]",
    "metric.name": "pIC50",
    "value": 6.48
  },
  {
    "compound": "Cn1nccc1-c1ncc(Sc2cccc(C3(C#N)CCOCC3)c2)cc1Cl [Example 47]",
    "metric.name": "pIC50",
    "value": 6.17
  },
  {
    "compound": "C[C@H]1C[C@@](C#N)(c2ccc(F)c(Sc3ccc(-c4ccnn4C)cc3)c2F)CCO1 [28(2)]",
    "metric.name": "pIC50",
    "value": 7.37
  },
  {
    "compound": "CNC(=O)C1(c2cccc(Sc3ccc(-c4ccnn4C)cc3)c2)CCOCC1 [Example 10]",
    "metric.name": "pIC50",
    "value": 6.53
  },
  {
    "compound": "C[C@H]1C[C@@](C#N)(c2cccc(Sc3ccc(-c4ccnn4C)cc3)c2F)CCO1 [29(2)]",
    "metric.name": "pIC50",
    "value": 7.20
  },
  {
    "compound": "Cn1nccc1-c1ccc(Sc2cccc(C3(C(N)=O)CCOCC3)c2F)cc1 [17(7)]",
    "metric.name": "pIC50",
    "value": 6.59
  },
  {
    "compound": "Cn1nccc1Oc1ccc(Sc2cccc(C3(C(N)=O)CCOCC3)c2)cc1C#N [Example 51]",
    "metric.name": "pIC50",
    "value": 6.69
  },
  {
    "compound": "CC(C)n1nccc1-c1ccc(Sc2cccc(C3(C(N)=O)CCOCC3)c2)cc1 [Example 9]",
    "metric.name": "pIC50",
    "value": 6.68
  },
  {
    "compound": "C[C@H]1C[C@@](C(N)=O)(c2cccc(Sc3ccc(-c4ccnn4C)c(F)c3)c2F)CCO1 [Example 31]",
    "metric.name": "pIC50",
    "value": 6.47
  },
  {
    "compound": "NC(=O)C1(c2cccc(Sc3ccc(-c4ccnn4C4CCCC4)cc3)c2)CCOCC1 [Example 3]",
    "metric.name": "pIC50",
    "value": 6.75
  }
]
